test: Pharmacokinetic measurement in mouse, single sc dose 30 nmol/kg, plasma ELISA; conditions: read-out: Cmax (nmol/L), single sc dose 30 nmol/kg
measured metric: Cmax (nmol/L)
Answers are plain numbers, in nmol/L.

| molecule | unit symbol | quantitative result |
| --- | --- | --- |
| MLC005: fusion polypeptide SEQ ID NO: 252 conjugated with Moiety A at 12K of Linker (conjugate, Moiety A conjugated at linker K12) HGEGTFTSDVSSYLEEQAAREFIAWLVRGGGGQEPGQEPGQEKGQEPGQEPGQEPGQEPGQEPGAQPGAQPARQGDHCPLGPGRCCRLHTVRASLEDLGWADWVLSPREVQVTMCIGACPSQFRAANLHAQIKTSLHRLRPDTVPAPCCVPASYNPMVLIQRTDTGVSLQTYDDLLARDCHCI | nmol/L | 16.7 |
| MLC013: fusion polypeptide SEQ ID NO: 260 conjugated with Moiety A at 1K of Linker (conjugate, Moiety A conjugated at linker K1) HGEGTFTSDVSSYLEEQAAREFIAWLVRGGGKQEPGAQPGQEPGAQPGQEPGAQPGQEPGAQPGQEPGAQPGQEPGAQPGAQPGAQPGAQPGAQPGAQPGAQPGAQPGAQPARQGDHCPLGPGRCCRLHTVRASLEDLGWADWVLSPREVQVTMCIGACPSQFRAANLHAQIKTSLHRLRPDTVPAPCCVPASYNPMVLIQRTDTGVSLQTYDDLLARDCHCI | nmol/L | 38.5 |
| MLC074: fusion polypeptide SEQ ID NO: 369 conjugated with Moiety B at 41C of Linker (conjugate, Moiety B conjugated at linker C41) HGEGTFTSDVSSYLEEQAAKEFIAWLVRGGGGQEPGAQPGQEPGAQPGQEPGAQPGQEPGAQPGQEPGAQPCQEPGAQPGAQPGAQPGAQPGAQPGAQPGAQPGAQPGAQPARQGDHCPLGPGRCCRLHTVRASLEDLGWADWVLSPREVQVTMCIGACPSQFRAANLHAQIKTSLHRLKPDTVPAPCCVPASYNPMVLIQKTDTGVSLQTYDDLLAKDCHCI | nmol/L | 102 |
| MLC075: fusion polypeptide SEQ ID NO: 369 conjugated with Moiety C at 41C of Linker (conjugate, Moiety C conjugated at linker C41) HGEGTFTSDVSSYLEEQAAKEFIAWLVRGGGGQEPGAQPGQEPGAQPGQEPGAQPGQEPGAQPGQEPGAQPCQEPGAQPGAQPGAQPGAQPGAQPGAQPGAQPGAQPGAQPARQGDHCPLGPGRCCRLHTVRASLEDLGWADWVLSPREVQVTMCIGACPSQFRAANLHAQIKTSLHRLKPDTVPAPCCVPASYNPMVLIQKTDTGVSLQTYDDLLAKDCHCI | nmol/L | 69.8 |
| MLC003: unconjugated GLP-1/GDF15 fusion protein (protein) HGEGTFTSDVSSYLEEQAAKEFIAWLVRGGGGQEPGQEPGQEPGQEPGQEPGQEPGQEPGQEPGAQPGAQPARQGDHCPLGPGRCCRLHTVRASLEDLGWADWVLSPREVQVTMCIGACPSQFRAANLHAQIKTSLHRLRPDTVPAPCCVPASYNPMVLIQRTDTGVSLQTYDDLLARDCHCI | nmol/L | 24.7 |

Provide each entry's Cmax from the list below.
1. MLC089: fusion polypeptide SEQ ID NO: 379 conjugated with Moiety B at 39C of Linker (conjugate, Moiety B conjugated at linker Cys39) HGEGTFTSDVSSYLEEQAAKEFIAWLVRGGGGAQPGAQPGAQPGAQPGAQPGAQPGAQPGAQPGQEPGQCPGQEPGAQPGQEPGAQPGQEPGAQPGQEPGAQPGQEPGAQPARQGDHCPLGPGRCCRLHTVRASLEDLGWADWVLSPREVQVTMCIGACPSQFRAANLHAQIKTSLHRLKPDTVPAPCCVPASYNPMVLIQKTDTGVSLQTYDDLLAKDCHCI
2. MLC006: fusion polypeptide SEQ ID NO: 253 conjugated with Moiety A at 36K of GLP-1 (conjugate, Moiety A conjugated at K36) HGEGTFTSDVSSYLEEQAAREFIAWLVRGKGGQEPGQEPGQEPGQEPGQEPGQEPGQEPGQEPGAQPGAQPARQGDHCPLGPGRCCRLHTVRASLEDLGWADWVLSPREVQVTMCIGACPSQFRAANLHAQIKTSLHRLRPDTVPAPCCVPASYNPMVLIQRTDTGVSLQTYDDLLARDCHCI

Out:
1. 116
2. 9.9

Values were extracted from patent US11453711B2.
